The reported measurements were obtained from patent US12338220B2.

measurement-target: CMV-polymerase (Human cytomegalovirus (strain AD169) (HHV-5) (Human herpesvirus 5))
assay-summary: biochemical
stated-conditions: CMV-polymerase Biochemical IC50
measured-property: IC50 (nM)
Numbers only, in nM.

Examples from the recorded data:
[[record]]
compound = "Cn1nc(C(=O)NCc2ccc(C#N)cc2)c2c1C(=O)N(CC1(S(=O)(=O)C(C)(C)COC(F)(F)CO)CC1)CC2"
measurement_target = "CMV-polymerase (Human cytomegalovirus (strain AD169) (HHV-5) (Human herpesvirus 5))"
measured_property = "IC50"
assay_value = 4

[[record]]
compound = "Cn1nc(C(=O)NCc2ccc(C#N)cc2)c2c1C(=O)N(CC1(S(=O)(=O)C(C)(C)COC(F)CO)CC1)CC2 (single isomer, unassigned) [Example 80]"
measurement_target = "CMV-polymerase (Human cytomegalovirus (strain AD169) (HHV-5) (Human herpesvirus 5))"
measured_property = "IC50"
assay_value = 6

[[record]]
compound = "Cn1nc(-c2cc(Cc3ccc(C#N)cc3)on2)c2c1C(=O)N(CC1(S(=O)(=O)C3CC3)CC1)CC2"
measurement_target = "CMV-polymerase (Human cytomegalovirus (strain AD169) (HHV-5) (Human herpesvirus 5))"
measured_property = "IC50"
assay_value = 1

[[record]]
compound = "CCC(=O)Cn1nc(C(=O)NCc2ccc(C#N)cc2)c2c1C(=O)N(CC1(S(=O)(=O)C3CC3)CC1)CC2"
measurement_target = "CMV-polymerase (Human cytomegalovirus (strain AD169) (HHV-5) (Human herpesvirus 5))"
measured_property = "IC50"
assay_value = 1

[[record]]
compound = "CC1Cc2c(C(=O)NCc3ccc(C#N)cc3)nn(C)c2C(=O)N1CC1(S(C)(=O)=O)CC1 (single isomer, unassigned)"
measurement_target = "CMV-polymerase (Human cytomegalovirus (strain AD169) (HHV-5) (Human herpesvirus 5))"
measured_property = "IC50"
assay_value = 149

[[record]]
compound = "Cn1nc(C(=O)NCc2ccc(C#N)cc2)c2c1C(=O)N(CC1(S(=O)(=O)C3(C)COC3)CC1)CC2"
measurement_target = "CMV-polymerase (Human cytomegalovirus (strain AD169) (HHV-5) (Human herpesvirus 5))"
measured_property = "IC50"
assay_value = 5


Batch lookup, IC50 per entry.
1. Cn1nc(C(=O)NCc2ccc(C#N)cc2)c2c1C(=O)N(CC1(S(=O)(=O)C3COC3)CC1)CC2
2. Cn1nc(C(=O)NCc2ccc(Cl)cc2)c2c1C(=O)N(CC1(S(N)(=O)=O)CC1)CC2
3. CC1(C)COCCOCCn2nc(C(=O)NCc3ccc(Cl)cc3)c3c2C(=O)N(CC3)CC2(CC2)S1(=O)=O
4. Cn1nc(C(=O)NCc2ccc(C#N)cc2)c2c1C(=O)N(CC1(S(=O)(=O)C3(C(O)CO)CC3)CC1)CC2 (single isomer, unassigned)

Reply:
1: 4; 2: 8; 3: 1; 4: 1

====

measurement-target: CMV-polymerase (Human cytomegalovirus (strain AD169) (HHV-5) (Human herpesvirus 5), UniProt P08546)
assay-summary: biochemical
stated-conditions: CMV-polymerase Biochemical IC50
I'd be grateful if you could share measured IC50 for these entries.
Numbers only, in nM.

[[record]]
compound_structure = "CC1(C)COCCOCCn2nc(C(=O)NCc3ccc(C#N)cc3)c3c2C(=O)N(CC3)CC2(CC2)S1(=O)=O"
measured_property = "IC50"
assay_value = 1

[[record]]
compound_structure = "Cn1nc(C(=O)NCc2ccc(C#N)cc2)c2c1C(=O)N(CC1(S(=O)(=O)C(C)(C)COC(F)(F)CN)CC1)CC2"
measured_property = "IC50"
assay_value = 3

[[record]]
compound_structure = "CC1(S(=O)(=O)C2(CN3CCc4c(C(=O)NCc5ccc(Cl)cc5)nn(CCOCCO)c4C3=O)CC2)CC1"
measured_property = "IC50"
assay_value = 3


Batch lookup, IC50 per entry.
1. Cn1nc(C2=NO[C@@H](c3ccc(C#N)cc3)C2)c2c1C(=O)N(CC1(S(=O)(=O)C3CC3)CC1)CC2
2. N#Cc1ccc(CNC(=O)c2nn(C3CC3)c3c2CCN(CC2(S(=O)(=O)C4CC4)CC2)C3=O)cc1
3. Cn1nc(C(=O)NCc2ccc(C#N)cc2)c2c1C(=O)N(CC1(S(=O)(=O)C(C)(C)COCC(C)(C)O)CC1)CC2
4. Cn1nc(-c2noc(Cc3ccc(C#N)cc3)n2)c2c1C(=O)N(CC1(S(=O)(=O)C3CC3)CC1)CC2

Reply:
3
2
18
1

====

measurement-target: CMV-polymerase (Human cytomegalovirus (strain AD169) (HHV-5) (Human herpesvirus 5), UniProt P08546)
assay-summary: biochemical
stated-conditions: CMV-polymerase Biochemical IC50
I'd be grateful if you could share measured pIC50 for these entries.
Answers are plain numbers, as −log10 of the molar value.

Examples from the recorded data:
[[record]]
compound = "N#Cc1ccc(CNC(=O)c2nn(CC3(O)CC3)c3c2CCN(CC2(S(=O)(=O)C4CC4)CC2)C3=O)cc1"
assay_value = 8.70

[[record]]
compound = "Cn1nc(C(=O)NCc2ccc(Cl)cc2)c2c1C(=O)N(CC1(S(=O)(=O)C(F)F)CC1)CC2"
assay_value = 7.60

[[record]]
compound = "CC1(S(=O)(=O)C2(CN3CCc4c(C(=O)NCc5ccc(Cl)cc5)nn(CCOCCN)c4C3=O)CC2)CC1"
assay_value = 8.30


Batch lookup, pIC50 per entry.
1. COCC(C)(CO)S(=O)(=O)C1(CN2CCc3c(C(=O)NCc4ccc(C#N)cc4)nn(C)c3C2=O)CC1 (single isomer, unassigned) [Example 182]
2. Cn1nc(C(=O)NCc2ccc(Cl)cc2)c2c1C(=O)N(CC1(S(=O)(=O)C(C)(C)COCCO)CC1)CC2
3. [2H]C([2H])(O)C(C)(C)S(=O)(=O)C1(CN2CCc3c(C(=O)NCc4ccc(C#N)cc4)nn(C)c3C2=O)CC1

Reply:
1. 8.70
2. 8.70
3. 9.00

Query: So what's the measured pIC50 for this one? Cn1nc(C(=O)NCc2ccc(C#N)cc2)c2c1C(=O)N(CC1(S(=O)(=O)[C@H]3C[C@@H](O)C3)CC1)CC2
Reply: 8.40

====

measurement-target: CMV-polymerase (Human cytomegalovirus (strain AD169) (HHV-5) (Human herpesvirus 5), UniProt P08546)
assay-summary: biochemical
stated-conditions: CMV-polymerase Biochemical IC50
measured-property: IC50 (nM)
Answers are plain numbers, in nM.

Examples from the recorded data:
[[record]]
molecule = "CS(=O)(=O)C1(CN2CCc3c(nn4c3C(=O)N(Cc3ccc(C#N)cc3)CC4)C2=O)CC1 [Example 46]"
assay_value = 41

[[record]]
molecule = "Cn1nc(C(=O)NCc2ccc(C#N)cc2)c2c1C(=O)N(CC1(S(=O)(=O)C(C)(C)COCC(C)(C)N)CC1)CC2 [Example 103]"
assay_value = 9

[[record]]
molecule = "CC(C)(CO)S(=O)(=O)C1(CN2CCc3c(C(=O)NCc4ccc(C#N)cc4)n[nH]c3C2=O)CC1 [Example 49]"
assay_value = 4

[[record]]
molecule = "CC(O)CC(C)(C)S(=O)(=O)C1(CN2CCc3c(C(=O)NCc4ccc(C#N)cc4)nn(C)c3C2=O)CC1 (single isomer, unassigned) [Example 116]"
assay_value = 2

[[record]]
molecule = "Cn1nc(C(=O)NCc2ccc(C#N)cc2)c2c1C(=O)N(CC1(S(=O)(=O)C(C)(C)C(O)C(C)(C)N)CC1)CC2 (single isomer, unassigned) [Example 212]"
assay_value = 3


Query: So what's the measured IC50 for this one? Cn1nc(C(=O)NCc2ccc(C#N)cc2)c2c1C(=O)N(CC1(S(=O)(=O)C(C)(C)[C@H](N)CO)CC1)CC2 [Example 213]
Reply: 2

====

measurement-target: CMV-polymerase (Human cytomegalovirus (strain AD169) (HHV-5) (Human herpesvirus 5))
assay-summary: biochemical
stated-conditions: read-out: CMV-polymerase Biochemical IC50
measured-property: IC50 (nM)
Give bare numbers, in nM.

[[record]]
compound_structure = "Cn1nc(C2=NO[C@@H](c3ccc(C#N)cc3)C2)c2c1C(=O)N(CC1(S(=O)(=O)C(C)(C)CO)CC1)CC2"
measured_property = "IC50"
assay_value = 872


Batch lookup, IC50 per entry.
1. Cc1ccc(CNC(=O)c2nn(C)c3c2CCN(CC2(S(=O)(=O)C4CC4)CC2)C3=O)cc1
2. Cn1nc(C(=O)NCc2ccc(C#N)cc2)c2c1C(=O)N(CC1(S(=O)(=O)C3(CO)COC3)CC1)CC2

Reply:
35
3

Batch lookup, IC50 per entry.
1. Cc1cc(NS(=O)(=O)C2(CN3CCc4c(C(=O)NCc5ccc(C#N)cc5)nn(C)c4C3=O)CC2)no1
2. Cn1nc(C(=O)NCc2ccc(Cl)cc2)c2c1C(=O)N(CC1(S(=O)(=O)NCC(C)(C)O)CC1)CC2
3. CNS(=O)(=O)C1(CN2CCc3c(C(=O)NCc4ccc(C#N)cc4)nn(C)c3C2=O)CC1
4. Cn1nc(C(=O)NCc2ccc(C#N)cc2)c2c1C(=O)N(CC1(S(=O)(=O)C3(COCCN)CC3)CC1)CC2

Reply:
1
30
9
1
